- Assayed system: Guanidinoacetate N-methyltransferase (Homo sapiens) (UniProt Q14353)
- Assay summary: Confirmatory Screen for Target Class Profiling of Small Molecule Inhibitors of Methyltransferases (AID 1745852); further: on the % scale 0 is the no-effect control and ±100 the full control effect
- Particulars: MTase-Glo luminescence, SAH detection, recombinant enzyme; at 57.3 µM (top of the series)
Endpoint name: activity change, negative = inhibition (%)

>>> print(df.to_string())
                               entry_smiles  u  numeric_readout
0  CN1C[C@H](CNC(=O)OCc2ccccc2)C[C@@H]2c3cccc4c3c(cn4C)C[C@H]21  %             5.68
1                          CC[N+](CC)(CC)CC  %             3.74
2                 N#CC(C#N)=Cc1ccc(O)c(O)c1  %             1.06
3  CC[C@@H](CO)NC(=O)[C@@H]1C=C2c3cccc4c3c(cn4C)C[C@H]2N(C)C1  %            -1.19

Cited source: PubChem BioAssay (NCATS)
